target-entity: Bromodomain-containing protein 4 (Homo sapiens, UniProt O60885)
protocol-text: Inhibition of FAM-labeled ZBA248 binding to recombinant N-terminal His6-tagged BRD4 bromodomain 1 (44 to 168 residues) (unknown origin) expressed in Escherichia coli Rosetta2 DE3 after 30 mins by fluorescence polarization assay
experimental-readout: IC50 (nM)

I: CNC(=O)c1ncc2c(n1)[nH]c1cc(-c3c(C)noc3C)c(OC)cc12
II: CCn1nc(C2CC2)cc1Nc1nc(C(=O)NC)nc2[nH]c3cc(-c4c(C)noc4C)c(OC)cc3c12
Form: Entry with minimum IC50 (choose one): I / II Pick one and reply with its label. II

====

target-entity: Bromodomain-containing protein 2 (Homo sapiens)
Sequence (P25440 whole entry, the tested form may be a part): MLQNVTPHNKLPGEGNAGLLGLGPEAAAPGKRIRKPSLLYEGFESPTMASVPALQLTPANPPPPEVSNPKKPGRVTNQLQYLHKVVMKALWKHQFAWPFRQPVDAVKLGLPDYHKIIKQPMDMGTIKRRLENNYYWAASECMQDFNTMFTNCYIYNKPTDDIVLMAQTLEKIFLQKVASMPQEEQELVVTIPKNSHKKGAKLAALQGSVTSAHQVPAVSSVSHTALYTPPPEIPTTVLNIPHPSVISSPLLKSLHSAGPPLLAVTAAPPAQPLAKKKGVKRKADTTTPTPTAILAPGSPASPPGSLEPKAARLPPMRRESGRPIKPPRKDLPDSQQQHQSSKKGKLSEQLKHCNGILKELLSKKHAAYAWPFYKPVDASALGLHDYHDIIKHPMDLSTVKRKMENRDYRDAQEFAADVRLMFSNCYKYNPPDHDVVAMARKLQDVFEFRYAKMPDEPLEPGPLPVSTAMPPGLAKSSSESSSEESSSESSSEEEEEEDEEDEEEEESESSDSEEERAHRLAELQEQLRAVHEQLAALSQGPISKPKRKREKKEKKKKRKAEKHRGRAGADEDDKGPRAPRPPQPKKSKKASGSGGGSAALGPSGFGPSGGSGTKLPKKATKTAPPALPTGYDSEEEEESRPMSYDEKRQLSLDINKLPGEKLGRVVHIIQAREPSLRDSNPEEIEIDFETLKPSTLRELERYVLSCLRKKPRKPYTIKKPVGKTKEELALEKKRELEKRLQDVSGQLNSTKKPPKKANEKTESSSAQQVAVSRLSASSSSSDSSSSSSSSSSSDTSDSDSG
protocol-text: Inhibition of FAM-labeled ZBA248 binding to recombinant N-terminal His6-tagged BRD2 bromodomain 1 (72 to 205 residues) (unknown origin) expressed in Escherichia coli Rosetta2 DE3 after 30 mins by fluorescence polarization assay
experimental-readout: Ki (µM)

1: CNC(=O)c1ncc2c(n1)[nH]c1cc(-c3c(C)noc3C)c(OC)cc12
2: CCn1nc(C2CC2)cc1Nc1nc(C(=O)NC)nc2[nH]c3cc(-c4c(C)noc4C)c(OC)cc3c12
For this pair, 1 and 2 , which shows a numerically higher Ki? Pick one and reply with its label. 1

====

target-entity: Bromodomain-containing protein 3 (Homo sapiens, UniProt Q15059)
Sequence (Q15059 whole entry, the tested form may be a part): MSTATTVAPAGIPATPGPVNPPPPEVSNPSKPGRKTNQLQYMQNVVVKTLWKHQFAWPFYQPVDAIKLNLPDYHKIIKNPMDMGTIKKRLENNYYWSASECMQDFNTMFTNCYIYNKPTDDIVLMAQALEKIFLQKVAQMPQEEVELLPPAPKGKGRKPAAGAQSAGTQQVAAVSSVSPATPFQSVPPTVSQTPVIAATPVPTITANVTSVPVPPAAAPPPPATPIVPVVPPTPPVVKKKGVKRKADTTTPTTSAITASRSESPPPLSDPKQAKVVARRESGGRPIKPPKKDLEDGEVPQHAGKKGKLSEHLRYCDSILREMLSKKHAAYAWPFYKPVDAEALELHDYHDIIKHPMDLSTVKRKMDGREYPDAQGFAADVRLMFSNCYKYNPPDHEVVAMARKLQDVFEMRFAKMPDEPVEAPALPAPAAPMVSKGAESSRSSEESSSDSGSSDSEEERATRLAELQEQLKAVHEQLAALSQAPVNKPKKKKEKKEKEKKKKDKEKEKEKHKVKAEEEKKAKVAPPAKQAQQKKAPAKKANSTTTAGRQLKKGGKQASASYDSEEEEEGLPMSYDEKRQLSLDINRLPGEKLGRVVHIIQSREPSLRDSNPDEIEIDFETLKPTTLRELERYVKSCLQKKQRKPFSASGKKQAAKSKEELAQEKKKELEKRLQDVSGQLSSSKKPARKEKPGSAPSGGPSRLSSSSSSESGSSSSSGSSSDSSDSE
protocol-text: Inhibition of FAM-labeled ZBA248 binding to recombinant N-terminal His6-tagged BRD3 bromodomain 1 (24 to 144 residues) (unknown origin) expressed in Escherichia coli Rosetta2 DE3 after 30 mins by fluorescence polarization assay
pKi: −log10 of the molar value.
experimental-readout: pKi

a: CNC(=O)c1ncc2c(n1)[nH]c1cc(-c3c(C)noc3C)c(OC)cc12
b: CCn1nc(C2CC2)cc1Nc1nc(C(=O)NC)nc2[nH]c3cc(-c4c(C)noc4C)c(OC)cc3c12
For this pair, a and b , which shows a numerically higher pKi? Pick one and reply with its label. b

====

System: RS4-11
protocol-text: Cytotoxicity against human RS4:11 cells assessed as cell growth inhibition after 4 days by WST-8 assay
Type: functional, cell-based
particulars: RS4-11, 96 h
experimental-readout: IC50 (nM)
Numeric only. Scale: nM

compound | target-entity | IC50 (nM)
CCn1nc(C2CC2)cc1Nc1nc(C(=O)NCCNc2cccc3c2C(=O)N(C2CCC(=O)NC2=O)C3=O)nc2[nH]c3cc(-c4c(C)noc4C)c(OC)cc3c12 (centres undefined) | RS4-11 | 4.8
CCn1nc(C2CC2)cc1Nc1nc(C(=O)NCCCCCc2cccc3c2CN(C2CCC(=O)N(C)C2=O)C3=O)nc2[nH]c3cc(-c4c(C)noc4C)c(OC)cc3c12 (centres undefined) | RS4-11 | 35.1
CCn1nc(C2CC2)cc1Nc1nc(C(=O)NCCCCCCCNc2cccc3c2C(=O)N(C2CCC(=O)NC2=O)C3=O)nc2[nH]c3cc(-c4c(C)noc4C)c(OC)cc3c12 (centres undefined) | RS4-11 | 0.2
CCn1nc(C2CC2)cc1Nc1nc(C(=O)NCCCCc2cccc3c2CN(C2CCC(=O)NC2=O)C3=O)nc2[nH]c3cc(-c4c(C)noc4C)c(OC)cc3c12 (centres undefined) | RS4-11 | 0.98
CCn1nc(C2CC2)cc1Nc1nc(C(=O)NCCOCCCc2cccc3c2CN(C2CCC(=O)NC2=O)C3=O)nc2[nH]c3cc(-c4c(C)noc4C)c(OC)cc3c12 (centres undefined) | RS4-11 | 0.9

Noted for CCn1nc(C2CC2)cc1Nc1nc(C(=O)NCCCCNC(=O)CNc2cccc3c2C(=O)N(C2CCC(=O)NC2=O)C3=O)nc2[nH]c3cc(-c4c(C)noc4C)c(OC)cc3c12 (centres undefined) : its IC50 reads 2.5

Noted for CCn1nc(C2CC2)cc1Nc1nc(C(=O)NCCCCCNc2cccc3c2C(=O)N(C2CCC(=O)NC2=O)C3=O)nc2[nH]c3cc(-c4c(C)noc4C)c(OC)cc3c12 (centres undefined) : its IC50 reads 0.14
